# ASSAY_OVERVIEW: OD615 S. cerevisiae growth inhibition, permissive medium, pilot counter-assay, permissive growth control for S. cerevisiae lifespan shortening project (AID 705)
# TEST_PARAMETERS: OD615, 24 h, at 10 µM, stronger effect = higher value
Below: a set of entries, each annotated with reported growth inhibition.
Write the number in % without appending the unit.

| MOLECULE | UNIT | growth inhibition |
| --- | --- | --- |
| O=C(COc1ccccc1F)c1ccc(O)cc1O | % | -0.53 |
| O=C1Nc2ccccc2C(O)(C(=O)NCc2ccco2)N1c1ccc(Cl)cc1 (centres undefined) | % | -7.58 |

Next:
Q. Please report the recorded growth inhibition for `COC(=O)c1ccc2[nH]c(C)cc(=O)c2c1` .
A. -15.1
